The measurements presented in this section are drawn from patent US20090143279A1.

tested on: cytochrome c; format: cell-based, mouse; conditions: normalized composite Z-score vs mock-treated (DMSO) wells; Conc 20 μM
metric-name: cyt c

CC12CCCC(O)(C1)C1CC(C)(C)C1CC2 (stereo not drawn) [beta-caryophyllene alcohol]    −1.030
CC(C)(O)[C@H]1CC[C@]2(C)[C@H]3CC[C@@H]4[C@@]5(C)CCCC(C)(C)[C@@H]5[C@@H](O)C[C@@]4(C)[C@]3(C)CC[C@@H]12 [zeorin]    0.088
COc1ccc2c(c1)C1(C)CCC(=O)CC1CC2 (stereo not shown)    0.380
CC(=O)O[C@H]1C[C@@H](O)C(C)(C)[C@@H]2C[C@@H](OC(C)=O)[C@]3(C)[C@H](CC[C@@]4(C)[C@@H](c5ccoc5)OC(=O)[C@H]5O[C@@]534)[C@@]12C [3-deacetylkhivorin]    −0.600
COc1ccc2c(c1)O[C@H]1c3ccc(OC)cc3OC[C@@H]21 [homopterocarpin]    0.575
O=C(Oc1cc(O)cc2c1C[C@@H](OC(=O)c1cc(O)c(O)c(O)c1)[C@@H](c1cc(O)c(O)c(O)c1)O2)c1cc(O)c(O)c(O)c1 [epigallocatechin 3,5-digallate]    1.040
CC1=CC2C(C(C)C)CCC(C)(O)C2CC1 (stereo not shown) [cadin-4-en-10-ol]    0.328
